Origin of the recorded values: paper PMC9482650

# subject-of-test: PARD3_3, Q8TEW0
# Sequence (Q8TEW0 582-685): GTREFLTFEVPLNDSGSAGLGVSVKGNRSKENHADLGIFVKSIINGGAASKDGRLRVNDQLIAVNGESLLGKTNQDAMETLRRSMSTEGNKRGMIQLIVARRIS
# assay-name: holdup assay
# Parameters: key: below the threshold = too weak to quantify, mostly under pKd 3.1 to 4
# study-conditions: plain residues with an end cap or a label only (N-terminal biotin on a linker: ttds)
experimental-readout: pKd

                                   binder  experimental_readout          test_result
 0             RPLPRKVSQL [DOCK4, Q8N1I0]                   pKd  below the threshold
 1  NDPAWDETNL [ARHGEF7, Q14155;Q14155-1]                   pKd                 4.16
 2             EMDRRPATVV [PLCB4, Q15147]                   pKd  below the threshold
 3           EVVHTPETSV [SLC16A3, O15427]                   pKd  below the threshold
 4            VDFPPKESSL [ACVR2A, P27037]                   pKd  below the threshold
 5            RLPKIKETTV [FRMPD4, Q14CM0]                   pKd  below the threshold
 6          QRQARSETLV [HPV59-E6, Q81964]                   pKd  below the threshold
 7          SGSRPSATVV [HPV73-E6, Q82005]                   pKd                 3.76
 8          PRVKPQRSKV [PPP1R13L, Q8WUF5]                   pKd  below the threshold
 9          RLQRRRETQV [HPV18-E6, P06463]                   pKd  below the threshold
10            DKDPHSETAL [TMIGD1, Q6UXZ0]                   pKd                 3.74
11            SSLQSLETSV [ATP2B4, P23634]                   pKd                 3.87
12            KKYVDAETSL [SLC4A7, Q9Y6M7]                   pKd                 3.62
13            PVRVCEETSL [OTULIN, Q96BN8]                   pKd                 3.59
14            FHPLGADSQV [SLC2A1, P11166]                   pKd  below the threshold
15          SKPTRRETEV [HPV35-E6, P27228]                   pKd  below the threshold
16          RHTTSTETAV [HPV30-E6, P36809]                   pKd  below the threshold
